- tgt: Mdm2/p53 binding (GST-Mdm2 / His-p53) (Homo sapiens, UniProt Q00987, L33E)
- Construct: Mdm2 partial protein having Mdm2 amino acids at positions 25 to 108
- Sequence (Q00987 25-108 L33E): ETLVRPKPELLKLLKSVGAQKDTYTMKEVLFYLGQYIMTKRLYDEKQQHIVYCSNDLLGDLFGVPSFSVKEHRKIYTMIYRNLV
- protocol: Mdm2/p53 binding assay (HTRF, His-p53 and GST-Mdm2)
- conditionSet: His-p53 (aa 1-132) and GST-Mdm2 (aa 25-108, L33E) 6.25 nM each; 25°C, 1 hour; values given as ranges
pIC50: −log10 of the molar value.
# pIC50 values compiled below

Examples from the recorded data:
| molecule | tgt | pIC50 |
| --- | --- | --- |
| O=C(N[C@@H]1CC[C@@H](CO)OC1)[C@@H]1NC2(CC(CF)(CF)C2)[C@@]2(C(=O)Nc3cc(Cl)ccc32)[C@H]1c1cccc(Cl)c1 [Example 175] | Mdm2/p53 binding (GST-Mdm2 / His-p53) (Homo sapiens, UniProt Q00987, L33E) | 7.00 to 7.30 |
| O=C(N[C@@H]1CC[C@@H](CO)OC1)[C@@H]1NC2(CC(CF)(CF)C2)[C@@]2(C(=O)Nc3cc(Cl)ccc32)[C@H]1c1cccc(Cl)c1F [Example 38] | Mdm2/p53 binding (GST-Mdm2 / His-p53) (Homo sapiens, UniProt Q00987, L33E) | 7.30 to 9.00 |
| CC(O)[C@@H]1CC[C@@H](NC(=O)[C@@H]2NC3(CC(CF)(CF)C3)[C@@]3(C(=O)Nc4cc(Cl)ccc43)[C@H]2c2cccc(Cl)c2F)CO1 (single isomer, unassigned) [Example 147] | Mdm2/p53 binding (GST-Mdm2 / His-p53) (Homo sapiens, UniProt Q00987, L33E) | 7.00 to 7.30 |
| CN(C)C(=O)[C@@H]1CC[C@@H](NC(=O)[C@@H]2NC3(CCC(C)(C)CC3)[C@@]3(C(=O)Nc4nc(Cl)ccc43)[C@H]2c2ccnc(Cl)c2F)CO1 [Example 104] | Mdm2/p53 binding (GST-Mdm2 / His-p53) (Homo sapiens, UniProt Q00987, L33E) | 7.30 to 9.00 |

Kindly consider the entry below.
## Input Look up pIC50 for this molecule: CO[C@]1(CO)CC[C@@H](NC(=O)[C@@H]2NC3(CCC(C)(C)CC3)[C@@]3(C(=O)Nc4nc(Cl)ccc43)[C@H]2c2ccnc(Cl)c2F)CC1 [Example 82]
## Output 7.30 to 9.00
